# experiment: DNDI: Cytotoxicity against L929 mouse fibroblasts, CYTO-SP, 24 hour
# Format: toxicity, cell-based
# conditionContext: mouse, L929 mouse fibroblasts
Catalogue of IC50 at 24 h readings, one per entry.

N#Cc1cccnc1Oc1cccc2ccccc12 | > 50 µg/mL

What the record says about N/C(=N/O)c1cccnc1Oc1ccccc1 : IC50 at 24 h is > 50 µg/mL

What the record says about CC1CC(NCc2coc(-c3sccc3Cl)n2)CC(C)(C)C1 (stereo not drawn) : IC50 at 24 h is > 50 µg/mL

###

Catalogue of log10 of half-life at 10 µM readings, one per entry.
# experiment: DNDI: half life in mouse liver microsomes at a concentration of 10uM
# Assay type: ADME, Microsome
Transform log10 | Measure half-life at 10 µM | Unit min

Here's what some known entries look like.
O/N=C(/NC1CCCCC1)c1cccnc1Oc1ccccc1Cl | 1.15
O/N=C(\NCC1CC1)c1ccccc1-c1ccccc1 | 1.40
CCCCCC(C)NCc1coc(-c2ccc(OCC)cc2)n1 (configuration not stated) | 2.95

What the record says about CCCCCC(C)NCc1coc(-c2ccc(Cl)cc2)n1 (configuration not stated) : log10 of half-life at 10 µM is 2.24

What the record says about O/N=C(\NC1CCCCC1)c1ccccc1Oc1ccccc1 : log10 of half-life at 10 µM is 0.60

What the record says about O/N=C(/NC1CCCCC1)c1cccnc1Oc1ccccc1F : log10 of half-life at 10 µM is 1.00

What the record says about COc1ccccc1Oc1ncccc1/C(=N\O)NC1CCCCC1 : log10 of half-life at 10 µM is 1.32

What the record says about CCCCCC(C)NCc1coc(-c2cccc(Cl)c2)n1 (configuration not stated) : log10 of half-life at 10 µM is 2.01

What the record says about COc1ccc(/C(=N/O)NC2CCCCC2)cc1 : log10 of half-life at 10 µM is 0.70

What the record says about CCCCCC(C)NCc1coc(-c2cccc(OC)c2)n1 (configuration not stated) : log10 of half-life at 10 µM is 1.73

What the record says about COc1cc(C)ccc1Oc1ncccc1/C(=N/O)NC1CCCCC1 : log10 of half-life at 10 µM is 1.58

What the record says about COc1ccccc1/C(=N/O)NC1CCCCC1 : log10 of half-life at 10 µM is 1.51

What the record says about O/N=C(\NC1CCCC1)c1ccccc1-c1ccccc1 : log10 of half-life at 10 µM is 1.08

What the record says about O/N=C(\NC1CCCCC1)c1ccccc1-c1ccccc1 : log10 of half-life at 10 µM is 1.76

What the record says about CCCCCC(C)NCc1coc(-c2cccc(OCC)c2)n1 (configuration not stated) : log10 of half-life at 10 µM is 1.48

What the record says about CCCCCC(C)NCc1coc(-c2ccc(OC(C)C)cc2)n1 (configuration not stated) : log10 of half-life at 10 µM is 1.91

What the record says about CCCCCC(C)NCc1ccc(-c2ccccc2)cc1 (configuration not stated) : log10 of half-life at 10 µM is 1.36

Data origin, for the record: ChEMBL document CHEMBL1857833
